assay: Toxicity in mouse assessed as maximum tolerated dose; conditions: in vivo
Residues, ends and D or L forms follow the SMILES beside them.

molecule: CC[C@H](C)[C@@H]([C@@H](CC(=O)N1CCC[C@H]1[C@H](OC)[C@@H](C)C(=O)N[C@@H](Cc1ccccc1)C(=O)O)OC)N(C)C(=O)[C@@H](NC(=O)[C@@H](NC)C(C)C)C(C)C (HELM PEPTIDE1{[meV].V.[CC[C@H](C)[C@@H]([C@@H](CC(=O)[*:2])OC)N(C)[*:1]].[CO[C@H]([C@@H](C)C(=O)[*:2])[C@@H]1CCCN1[*:1]].F}$$$$V2.0)
units.text: mg/kg
MTD: 1
//
molecule: CC[C@H](C)[C@@H]([C@@H](CC(=O)N1CCC[C@H]1[C@H](OC)[C@@H](C)C(=O)N[C@@H](Cc1ccccc1)c1nccs1)OC)N(C)C(=O)[C@@H](NC(=O)[C@H](C(C)C)N(C)C)C(C)C [DOLASTATIN-10]
units.text: mg/kg
MTD: 0.036

* * *

assay: Toxicity in dog assessed as maximum tolerated dose; set-up: species or system Canis lupus familiaris; settings: in vivo

compound: CC[C@H](C)[C@@H]([C@@H](CC(=O)N1CCC[C@H]1[C@H](OC)[C@@H](C)C(=O)N[C@@H](Cc1ccccc1)c1nccs1)OC)N(C)C(=O)[C@@H](NC(=O)[C@H](C(C)C)N(C)C)C(C)C [DOLASTATIN-10]
MTD, mg/kg: 0.02

Origin of the recorded values: ChEMBL document CHEMBL5150014
